- measured.on: MAO-B (Homo sapiens, UniProt P27338)
- Construct: purchased Sigma-Aldrich
- Sequence (P27338 1-520): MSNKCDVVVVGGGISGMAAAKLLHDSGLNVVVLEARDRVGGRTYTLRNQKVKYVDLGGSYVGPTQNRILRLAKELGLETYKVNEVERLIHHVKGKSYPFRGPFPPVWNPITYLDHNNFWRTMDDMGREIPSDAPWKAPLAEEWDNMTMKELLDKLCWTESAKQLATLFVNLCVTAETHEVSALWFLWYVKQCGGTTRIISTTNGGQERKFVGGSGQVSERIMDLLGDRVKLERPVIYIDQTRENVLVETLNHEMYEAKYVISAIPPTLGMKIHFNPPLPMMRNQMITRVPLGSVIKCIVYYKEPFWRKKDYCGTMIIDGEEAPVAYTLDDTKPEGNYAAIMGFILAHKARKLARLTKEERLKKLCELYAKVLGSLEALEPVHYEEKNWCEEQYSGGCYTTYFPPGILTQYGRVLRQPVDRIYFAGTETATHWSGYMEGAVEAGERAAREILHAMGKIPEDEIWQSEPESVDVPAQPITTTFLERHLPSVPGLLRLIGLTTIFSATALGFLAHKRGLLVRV
- test.description: continuous spectrophotometric MAO-B inhibition assay
- Type: biochemical
- condition.description: LiPE = pIC50 - QPlogPo/w, new analogs and pargyline
measured.endpoint: LiPE
// return a plain number; no unit text

COc1cccc(-c2cc3ccccc3oc2=O)c1	3.04
COc1ccc2oc(=O)c(-c3ccc(C(F)(F)F)cc3)cc2c1	3.17
COc1ccc(-c2cc3cc(OC(C)=O)ccc3oc2=O)cc1	2.73

Given COc1ccc2oc(=O)c(-c3ccc(OC(F)(F)F)cc3)cc2c1 , state its recorded LiPE.
2.28

###

pIC50 values, listed per item
- measured.on: MAO-B (Homo sapiens)
- Construct: purchased Sigma-Aldrich
- test.description: continuous spectrophotometric MAO-B inhibition assay
- Type: biochemical
- condition.description: dilution series 50 μM to 1 nM, duplicates; read-out: MAO-B inhibition IC50
- Protocol: […] The protocol for continuous spectrophotometric assay (Holt et al., [1997]) was followed in the activity measurements. […] The background signal was measured using multilabel reader (Victor^TM X4, 2030 Multilabel Reader, PerkinElmer, Waltham, MA, USA) at A490 before reaching the total 200 μl volume by adding 20 μl of tyramine to final concentration of 0.5 mM on the plate. […] After adding the substrate, the plates were measured 300 times every 15 s using 1 s exposure time. […]
Keep it numeric: pIC50 is minus log10 of the concentration in mol/L.

Below are worked cases with known answers.
COc1ccc(-c2cc3cc(OC)ccc3oc2=O)cc1	6.40
COc1ccc(-c2cc3ccc(O)cc3oc2=O)cc1	6.02
COc1ccc2oc(=O)c(-c3ccc(F)cc3)cc2c1	6.36
COc1ccc2oc(=O)c(-c3cc(F)c(F)cc3F)cc2c1	6.53

Below: the item to evaluate.
Given COc1cccc(-c2cc3ccccc3oc2=O)c1 , state its recorded pIC50.
6.10

###

- measured.on: MAO-A (Homo sapiens, UniProt P21397)
- Construct: purchased Sigma-Aldrich
- Sequence (P21397 whole entry): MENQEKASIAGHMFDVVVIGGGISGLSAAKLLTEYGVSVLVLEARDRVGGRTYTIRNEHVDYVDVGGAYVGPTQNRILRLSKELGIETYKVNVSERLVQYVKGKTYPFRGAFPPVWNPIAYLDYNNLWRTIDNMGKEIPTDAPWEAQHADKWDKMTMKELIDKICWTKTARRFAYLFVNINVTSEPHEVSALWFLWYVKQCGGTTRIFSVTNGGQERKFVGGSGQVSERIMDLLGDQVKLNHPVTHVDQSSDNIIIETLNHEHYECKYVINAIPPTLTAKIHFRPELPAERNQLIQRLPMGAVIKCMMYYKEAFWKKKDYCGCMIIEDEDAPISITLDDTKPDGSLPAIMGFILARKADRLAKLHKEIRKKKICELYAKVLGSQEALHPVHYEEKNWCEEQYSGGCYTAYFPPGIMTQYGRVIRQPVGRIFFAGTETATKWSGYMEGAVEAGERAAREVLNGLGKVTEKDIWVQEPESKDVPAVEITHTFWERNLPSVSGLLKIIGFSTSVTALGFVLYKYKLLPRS
- test.description: continuous spectrophotometric MAO-A inhibition assay
- Format: biochemical
- condition.description: 100 µM, 1h
measured.endpoint: MAO-A inhibition % (%)
Respond numerically; units are % and should not be typed.

Below are worked cases with known answers.
COc1ccc2oc(=O)c(-c3ccc(Oc4ccc(F)cc4)cc3)cc2c1	8.11
Cc1ccc(-c2cc3ccc(O)cc3oc2=O)cc1	43.83
COc1cccc(-c2cc3ccc(OC)cc3oc2=O)c1	0.00
O=c1oc2cc(O)ccc2cc1-c1cccc(O)c1	0.00
O=c1oc2c(Cl)cc(Cl)cc2cc1-c1ccc(F)cc1	0.00

Below: the item to evaluate.
Given O=c1oc2c(O)cccc2cc1-c1ccc(O)cc1 , state its recorded MAO-A inhibition %.
22.39

###

- measured.on: recombinant human HSD1 (Homo sapiens, UniProt P14061)
- Construct: made in house; host or cells: Sf9 insect cells
- Sequence (P14061 whole entry): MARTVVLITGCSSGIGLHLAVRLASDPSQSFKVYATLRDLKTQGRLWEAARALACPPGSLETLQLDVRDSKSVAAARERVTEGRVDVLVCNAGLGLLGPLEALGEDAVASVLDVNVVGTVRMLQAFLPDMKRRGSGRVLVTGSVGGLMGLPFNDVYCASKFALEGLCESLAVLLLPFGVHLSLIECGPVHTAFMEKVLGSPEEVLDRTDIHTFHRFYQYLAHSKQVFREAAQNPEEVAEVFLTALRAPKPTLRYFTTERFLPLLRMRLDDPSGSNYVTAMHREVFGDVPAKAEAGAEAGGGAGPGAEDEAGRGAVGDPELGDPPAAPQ
- test.description: HSD1 inhibition by HPLC with tritium labeled estrone/estradiol
- Type: biochemical
- condition.description: 1 μM
Lab note: compare HSD1 inhibition % against 0.3%. Equal or greater, write label 1. Smaller, write label 0.

Threshold query (HSD1 inhibition % >= 0.3%) on O=c1oc2c(Cl)cc(Cl)cc2cc1-c1ccc(F)cc1
label 1

Threshold query (HSD1 inhibition % >= 0.3%) on COc1ccc(-c2cc3cccc(O)c3oc2=O)cc1
label 1

###

- measured.on: MAO-A (Homo sapiens, UniProt P21397)
- Construct: purchased Sigma-Aldrich
- test.description: continuous spectrophotometric MAO-A inhibition assay
- Type: biochemical
- condition.description: 100 μM
inhibition at 100 µM values, listed per item
Respond numerically; units are % and should not be typed.

Below are worked cases with known answers.
COc1ccc2oc(=O)c(-c3ccc(F)cc3)cc2c1 [derivative 21]	0
CN(C)c1ccc(-c2cc3ccc(O)cc3oc2=O)cc1 [derivative 17]	4.74
COc1ccc2cc(-c3ccc(O)c(F)c3)c(=O)oc2c1 [derivative 20]	0
COc1ccc2oc(=O)c(-c3ccc(O)c(F)c3)cc2c1 [derivative 22]	0
CC(=O)Oc1ccc2cc(-c3ccc(OC(F)(F)F)cc3)c(=O)oc2c1 [derivative 3]	22

Query for MAO-A (Homo sapiens, UniProt P21397): what inhibition at 100 µM does the record show for O=c1oc2ccc(O)cc2cc1-c1ccc(F)cc1 [derivative 24] ?
14.2

Query for MAO-A (Homo sapiens, UniProt P21397): what inhibition at 100 µM does the record show for COc1ccc(-c2cc3ccc(O)cc3oc2=O)cc1 [derivative 12] ?
24.6

Query for MAO-A (Homo sapiens, UniProt P21397): what inhibition at 100 µM does the record show for Cc1ccc2oc(=O)c(-c3ccc(C(F)(F)F)cc3)cc2c1 [derivative 5] ?
0

Query for MAO-A (Homo sapiens, UniProt P21397): what inhibition at 100 µM does the record show for COc1cccc(-c2cc3ccccc3oc2=O)c1 [derivative 11, 3-(3-methoxyphenyl)-2H-chromen-2-one] ?
0

Query for MAO-A (Homo sapiens, UniProt P21397): what inhibition at 100 µM does the record show for COc1ccc2cc(-c3ccc(OC(C)=O)c(F)c3)c(=O)oc2c1 [derivative 6] ?
0

Query for MAO-A (Homo sapiens, UniProt P21397): what inhibition at 100 µM does the record show for COc1ccc2oc(=O)c(-c3ccc(N(C)C)cc3)cc2c1 [derivative 18] ?
0

Query for MAO-A (Homo sapiens, UniProt P21397): what inhibition at 100 µM does the record show for COc1cccc(-c2cc3cc(OC)ccc3oc2=O)c1 [derivative 8] ?
0

Query for MAO-A (Homo sapiens, UniProt P21397): what inhibition at 100 µM does the record show for COc1ccc(-c2cc3ccc(OC(C)=O)cc3oc2=O)cc1 [derivative 13] ?
2.48

Query for MAO-A (Homo sapiens, UniProt P21397): what inhibition at 100 µM does the record show for COc1ccc(-c2cc3cc(OC)ccc3oc2=O)cc1 [derivative 10] ?
10.1

Query for MAO-A (Homo sapiens, UniProt P21397): what inhibition at 100 µM does the record show for COc1ccc2oc(=O)c(-c3ccc(C(F)(F)F)cc3)cc2c1 [derivative 1] ?
0

Query for MAO-A (Homo sapiens, UniProt P21397): what inhibition at 100 µM does the record show for COc1cc(OC)cc(-c2cc3cc(OC)ccc3oc2=O)c1 [derivative 9] ?
0

Query for MAO-A (Homo sapiens, UniProt P21397): what inhibition at 100 µM does the record show for COc1ccc2oc(=O)c(-c3ccc(OC(F)(F)F)cc3)cc2c1 [derivative 4] ?
0

Query for MAO-A (Homo sapiens, UniProt P21397): what inhibition at 100 µM does the record show for COc1ccc2oc(=O)c(-c3cc(F)c(F)cc3F)cc2c1 [derivative 15] ?
0

Query for MAO-A (Homo sapiens, UniProt P21397): what inhibition at 100 µM does the record show for CC(=O)Oc1ccc(-c2cc3cc(Cl)cc(Cl)c3oc2=O)cc1F [derivative 7] ?
0

Query for MAO-A (Homo sapiens, UniProt P21397): what inhibition at 100 µM does the record show for CC(=O)Oc1ccc2cc(-c3ccc(N(C)C)cc3)c(=O)oc2c1 [derivative 19] ?
0

Query for MAO-A (Homo sapiens, UniProt P21397): what inhibition at 100 µM does the record show for Cc1ccc2oc(=O)c(-c3ccc(F)cc3)cc2c1 [derivative 23] ?
0

###

- measured.on: ERα (Homo sapiens, UniProt P03372)
- Construct: purchased Life Technologies
- Sequence (P03372 whole entry): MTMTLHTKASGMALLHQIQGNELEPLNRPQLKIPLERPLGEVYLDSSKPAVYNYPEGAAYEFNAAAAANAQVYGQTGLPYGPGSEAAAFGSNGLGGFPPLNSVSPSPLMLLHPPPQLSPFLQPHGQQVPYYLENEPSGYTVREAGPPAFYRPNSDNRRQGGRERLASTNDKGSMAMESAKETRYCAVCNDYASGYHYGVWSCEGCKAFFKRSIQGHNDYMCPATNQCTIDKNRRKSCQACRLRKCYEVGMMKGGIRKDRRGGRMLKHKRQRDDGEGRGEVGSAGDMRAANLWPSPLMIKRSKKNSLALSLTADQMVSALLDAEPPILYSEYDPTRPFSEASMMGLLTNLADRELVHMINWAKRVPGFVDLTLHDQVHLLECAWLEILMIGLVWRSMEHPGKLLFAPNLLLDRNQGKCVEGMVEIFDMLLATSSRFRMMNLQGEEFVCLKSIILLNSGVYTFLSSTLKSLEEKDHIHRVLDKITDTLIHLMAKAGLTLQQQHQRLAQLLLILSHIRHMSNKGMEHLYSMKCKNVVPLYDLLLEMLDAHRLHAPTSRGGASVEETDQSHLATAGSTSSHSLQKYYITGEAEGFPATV
- test.description: PolarScreen ER Alpha Competitor Assay (fluorescence polarization)
- Type: binding
- condition.description: 10 μM
measured.endpoint: ER inhibition % (%)
Respond numerically; units are % and should not be typed.

Below are worked cases with known answers.
O=c1oc2ccc(O)cc2cc1-c1ccc(O)cc1 [derivative 48]	98.41
O=c1oc2cc(O)cc(O)c2cc1-c1ccc(O)cc1 [derivative 45]	0.13
COc1ccc(-c2cc3ccccc3oc2=O)cc1 [derivative 36]	0.00

Given O=c1oc2c(O)cccc2cc1-c1cccc(O)c1 [derivative 43] , state its recorded ER inhibition %.
0.00

Given O=c1oc2cc(O)cc(O)c2cc1-c1cccc(O)c1 [derivative 42] , state its recorded ER inhibition %.
0.44

Given CC(=O)Oc1ccc2cc(-c3ccc(F)cc3)c(=O)oc2c1 [derivative 28] , state its recorded ER inhibition %.
57.12

Given O=c1oc2cc(O)ccc2cc1-c1ccc(F)cc1 [derivative 39] , state its recorded ER inhibition %.
100.63

Given O=c1oc2ccc(O)cc2cc1-c1cccc(O)c1 [derivative 38] , state its recorded ER inhibition %.
18.53
